measured quantity: melting point

{"smiles structure": "Cc1c(S(=O)(=O)n2ccc3c(OCCN4CCCCC4)cccc32)sc2ccc(Cl)cc12", "melting point": "217 to 219 °C"}

# input Any idea what melting point was measured for O=S(=O)(c1c(Cl)nc2sccn12)n1ncc2c(OCCN3CCCCC3)cccc21 ?
# output 88 to 90 °C

# input Any idea what melting point was measured for O=S(=O)(c1cccs1)n1ncc2c(OCCN3CCCCC3)cccc21 ?
# output 172 to 175 °C

# input Any idea what melting point was measured for Cc1c(S(=O)(=O)n2ncc3c(OCCN4CCCCC4)cccc32)sc2ccc(Cl)cc12 ?
# output 216 to 218 °C

* * *

// human cloned 5-HT6 receptors (Homo sapiens) pKi records
Scale: negative log10 of molar concentration, which is what pKi denotes.

Check out these entries, answers already filled in.
{"compound": "O=S(=O)(c1c(Cl)nc2sccn12)n1ncc2c(OCCN3CCCCC3)cccc21 [Example 22]", "measured quantity": "pKi", "recorded result": 8.70}
{"compound": "Cc1c(S(=O)(=O)n2ccc3c(OCCN4CCCCC4)cccc32)sc2ccc(Cl)cc12 [Example 15]", "measured quantity": "pKi", "recorded result": 7.15}
{"compound": "O=S(=O)(c1ccc(Cl)s1)n1ncc2c(OCCN3CCCCC3)cccc21 [Example 24]", "measured quantity": "pKi", "recorded result": 7.92}

# input What value of pKi on human cloned 5-HT6 receptors (Homo sapiens) does O=S(=O)(c1cccs1)n1ncc2c(OCCN3CCCCC3)cccc21 [Example 25] have?
# output 8.10

* * *

measured quantity: melting point

{"smiles structure": "O=S(=O)(c1cc(Cl)c(Cl)s1)n1ccc2cc(OCCN3CCCCC3)ccc21", "recorded result": "222 to 224 °C"}
{"smiles structure": "O=S(=O)(c1c(Cl)nc2sccn12)n1ccc2cc(OCCN3CCCCC3)ccc21", "recorded result": "60 °C"}
{"smiles structure": "O=S(=O)(c1cc(Cl)c(Cl)s1)n1ncc2c(OCCN3CCCCC3)cccc21", "recorded result": "214 to 216 °C"}
{"smiles structure": "O=S(=O)(c1ccc(Cl)s1)n1ncc2c(OCCN3CCCCC3)cccc21", "recorded result": "187 to 189 °C"}

Turning now to a further record.
# input Any idea what melting point was measured for O=S(=O)(c1ccc(Cl)s1)n1ccc2cc(OCCN3CCCCC3)ccc21 ?
# output 222 to 224 °C

These measurements were taken from patent US7541358B2.
